Taken from patent US20250011456A1.

# assayedTarget: T1, recombinant human CD14 (B294801, histidine tagged) (Homo sapiens, UniProt P08571)
# T1 construct: His; purchased Shanghai BaiYing Biotechnology Co., Ltd B294801 (Batch number 20200518A22)
# T1 sequence (P08571 20-345): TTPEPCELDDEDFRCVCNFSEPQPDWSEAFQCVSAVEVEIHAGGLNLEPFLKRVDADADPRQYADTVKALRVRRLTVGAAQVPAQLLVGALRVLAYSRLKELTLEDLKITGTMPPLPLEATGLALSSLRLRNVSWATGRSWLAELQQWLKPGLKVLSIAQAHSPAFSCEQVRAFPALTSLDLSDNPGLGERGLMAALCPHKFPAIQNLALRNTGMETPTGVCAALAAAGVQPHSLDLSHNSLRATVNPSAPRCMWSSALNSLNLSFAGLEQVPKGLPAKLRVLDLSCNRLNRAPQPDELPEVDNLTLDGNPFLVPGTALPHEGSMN
# experimentalProtocol: Biacore 8K kinetic and affinity test of humanized antibodies (Example 8)
# Assay type: binding
# particulars: Biacore 8K, KD=koff/kon, analyte B294801 0.78125-25 nM, capture 1 μg/mL
measureName: Kd (nM)
Numbers only, in nM.

query: Query: Kd; subject: D6DD3D004: humanized anti-CD14 antibody; VH SEQ ID NO: 13, VL SEQ ID NO: 15 (antibody, V domains shown) VH: QLQLQESGPGLVKPSETLSLTCTVSGGSISSDSAWNWIRQPPGKGLEWIGYISYSGSTSYNPSLKSRVTISRDTSKNQFSLKLSSVTAADTAVYYCVRGLRFAYWGQGTLVTVSS VL: EIVLTQSPATLSLSPGERATLSCRASESVDSYVNSFLHWYQQKPGQAPRLLIYRASNLQSGIPARFSGSGSRTDFTLTISSLEPEDVAVYYCQQSNEDPYTFGQGTKLEIK
result: 1.99
